Reference source: patent US20240400708A1

Some binders, each annotated with its measured Kd.
target: feline FcRn complex (FcRn-α subunit and β-microglobulin), biotin labeled (feline); assay: SPR, pH 6
test.readout: Kd

feline IgG1a S428C (antibody, part only; not given: Variable domains, not shown: another chain or arm of the molecule) constant: ASTTAPSVFPLAPSCGTTSGATVALACLVLGYFPEPVTVSWNSGALTSGVHTFPAVLQASGLYSLSSMVTVPSSRWLSDTFTCNVAHPPSNTKVDKTVRKTDHPPGPKPCDCPKCPPPEMLGGPSIFIFPPKPKDTLSISRTPEVTCLVVDLGPDDSDVQITWFVDNTQVYTAKTSPREEQFNSTYRVVSVLPILHQDWLKGKEFKCKVNSKSLPSPIERTISKAKGQPHEPQVYVLPPAQEELSRNKVSVTCLIKSFHPPDIAVEWEITGQPEPENNYRTTPPQLDSDGTYFVYSKLSVDRSHWQRGNTYTCSVCHEALHSHHTQKSLTQSPGK | 61.4 nM
feline IgG1a A378K (antibody, part only; not given: Variable domains, not shown: another chain or arm of the molecule) constant: ASTTAPSVFPLAPSCGTTSGATVALACLVLGYFPEPVTVSWNSGALTSGVHTFPAVLQASGLYSLSSMVTVPSSRWLSDTFTCNVAHPPSNTKVDKTVRKTDHPPGPKPCDCPKCPPPEMLGGPSIFIFPPKPKDTLSISRTPEVTCLVVDLGPDDSDVQITWFVDNTQVYTAKTSPREEQFNSTYRVVSVLPILHQDWLKGKEFKCKVNSKSLPSPIERTISKAKGQPHEPQVYVLPPAQEELSRNKVSVTCLIKSFHPPDIKVEWEITGQPEPENNYRTTPPQLDSDGTYFVYSKLSVDRSHWQRGNTYTCSVSHEALHSHHTQKSLTQSPGK | 104 nM
